# target.of.assay: APOL1
# details: ASO, A431, 0.0625 µM
After the bases stand the sugars from the 5' end (letter, count) and the backbone: PS all phosphorothioate, else s phosphorothioate and o phosphodiester by linkage. Methylation of C is not given here. e = 2'-O-(2-methoxyethyl) (MOE); k = constrained ethyl (cEt); d = 2'-deoxy (DNA)
Each entry gets Criterion not met if its target mRNA inhibition stays under 60%, and Criterion met if its target mRNA inhibition is 60% or above.

Some solved entries appear below for comparison.
# construct.sequence, target.of.assay, class.assignment
records = [
    ("ATTTCTTGATGTGGTG (sugars kdddddkekekddddd, PS)", "APOL1", "Criterion not met"),
    ("GGAATTATGGAATTGC (sugars kkddddekekeddddd, PS)", "APOL1", "Criterion met"),
    ("CGTCAATATATTCTTT (sugars kkkddddkekeddddd, PS)", "APOL1", "Criterion met"),
    ("ACGCAATGCTGACTTG (sugars kkddddekekeddddd, PS)", "APOL1", "Criterion not met"),
    ("CACCATAGCACGAAGC (sugars k4 d9 k3, PS)", "APOL1", "Criterion not met"),
    ("GCTAATTTTCTGACTG (sugars kkdddddkekeddddd, PS)", "APOL1", "Criterion not met"),
    ("ACAGCATTGAGTACAA (sugars k4 d9 k3, PS)", "APOL1", "Criterion not met"),
    ("CTTATGCTTACTCCAC (sugars k4 d9 k3, PS)", "APOL1", "Criterion met"),
    ("GCTTTAAACTCAGGTG (sugars kkkddddkdkdkdddd, PS)", "APOL1", "Criterion not met"),
    ("ATTTCTTGATGTGGTG (sugars k4 d9 k3, PS)", "APOL1", "Criterion met"),
]

### Prompt Does target mRNA inhibition meet or surpass 60% for CAAGTCAGTACAGAGC (sugars k4 d9 k3, PS) ?
### Response Criterion not met

### Prompt Does target mRNA inhibition meet or surpass 60% for GGTAAGAGCGATGGGA (sugars k3 d10 k3, PS) ?
### Response Criterion met

### Prompt Does target mRNA inhibition meet or surpass 60% for AGTATTGCCAGCTAAG (sugars k4 d9 k3, PS) ?
### Response Criterion met

### Prompt Does target mRNA inhibition meet or surpass 60% for CATTTGGAGATCTGGC (sugars k4 d9 k3, PS) ?
### Response Criterion not met

### Prompt Does target mRNA inhibition meet or surpass 60% for AATGTTTGCATTTGGG (sugars k4 d9 k3, PS) ?
### Response Criterion met

### Prompt Does target mRNA inhibition meet or surpass 60% for AGGTTGTCCAGAGCTT (sugars k4 d9 k3, PS) ?
### Response Criterion not met

### Prompt Does target mRNA inhibition meet or surpass 60% for GTTATGAAATTATTGG (sugars kekddddeekkddddd, PS) ?
### Response Criterion not met

* * *

# target.of.assay: DGAT2
# details: ASO, HepG2, 2.5 µM
After the bases stand the sugars from the 5' end (letter, count) and the backbone: PS all phosphorothioate, else s phosphorothioate and o phosphodiester by linkage. Methylation of C is not given here. e = 2'-O-(2-methoxyethyl) (MOE); d = 2'-deoxy (DNA)
Each entry gets not satisfied if its target mRNA inhibition stays under 60%, and satisfied if its target mRNA inhibition is 60% or above.

Some solved entries appear below for comparison.
# construct.sequence, class.assignment
measured = [
    ("ATCCTGCCAGAGTTATCCTC (sugars e5 d10 e5, PS)", "satisfied"),
    ("CAAGAGGTAAGGCCAAGGAA (sugars e5 d10 e5, PS)", "satisfied"),
    ("TGGTCAGCAGGTTGTGTGTC (sugars e5 d10 e5, PS)", "not satisfied"),
]

### Prompt Does target mRNA inhibition meet or surpass 60% for GGAGCAGGCCTCGGGAAGCA (sugars e5 d10 e5, PS) ?
### Response not satisfied

### Prompt Does target mRNA inhibition meet or surpass 60% for CTAAGCTTATTAGGTGTCTT (sugars e5 d10 e5, PS) ?
### Response satisfied

### Prompt Does target mRNA inhibition meet or surpass 60% for TGACTGCATTCTTGCCAGGC (sugars e5 d10 e5, PS) ?
### Response not satisfied

### Prompt Does target mRNA inhibition meet or surpass 60% for TAAGGAAAACTTAGGCATGC (sugars e5 d10 e5, PS) ?
### Response satisfied

Where do these numbers come from? They come from the OligoGym collection.
